Tested on: HEK293T (human embryonic kidney cell)
test: MTT cytotoxicity assay, HEK293T
Assay type: cell-based
test-parameters: 72 hr, MTT; read-out: IC50 HEK293T
measurement-type: pIC50
Field pIC50 (float): negative decimal logarithm of the concentration in molar.

**Q:** What does the data say about its pIC50? Entry: `CC(C)C[C@H](NC(=O)CN)C(=O)N[C@@H](CC(C)C)C(=O)N[C@@H](CCC(=O)O)C(=O)N[C@@H](CC(C)C)C(=O)N[C@@H](CC(C)C)C(=O)N[C@@H](Cc1c[nH]cn1)C(=O)N[C@@H](CC(C)C)C(=O)N[C@@H](CC(C)C)C(=O)N[C@@H](CC(C)C)C(=O)N[C@@H](CCC(=O)O)C(=O)N[C@@H](C)C(=O)N[C@@H](C)C(=O)NCC(=O)N[C@@H](Cc1c[nH]c2ccccc12)C(N)=O`
**A:** 4.89

**Q:** Tell me the measured pIC50 of `CC(C)C[C@H](NC(=O)CN)C(=O)N[C@@H](CC(C)C)C(=O)N[C@@H](CCC(=O)O)C(=O)N[C@@H](CC(C)C)C(=O)N[C@@H](CC(C)C)C(=O)N[C@@H](CCC(=O)O)C(=O)N[C@@H](CC(C)C)C(=O)N[C@@H](CC(C)C)C(=O)N[C@@H](CC(C)C)C(=O)N[C@@H](CCC(=O)O)C(=O)N[C@@H](C)C(=O)N[C@@H](C)C(=O)NCC(=O)N[C@@H](Cc1c[nH]c2ccccc12)C(N)=O` , please.
**A:** 4.30

**Q:** Please look up its pIC50: `CC(C)C[C@H](NC(=O)CN)C(=O)N[C@@H](CC(C)C)C(=O)N[C@@H](CC(=O)O)C(=O)N[C@@H](CC(C)C)C(=O)N[C@@H](CC(C)C)C(=O)N[C@@H](CCC(=O)O)C(=O)N[C@@H](CC(C)C)C(=O)N[C@@H](CC(C)C)C(=O)N[C@@H](CC(C)C)C(=O)N[C@@H](CCCCN)C(=O)N[C@@H](C)C(=O)N[C@@H](C)C(=O)NCC(=O)N[C@@H](Cc1c[nH]c2ccccc12)C(N)=O`
**A:** 5.17

**Q:** Quick one: pIC50 of `CC(C)C[C@H](NC(=O)CN)C(=O)N[C@@H](CC(C)C)C(=O)N[C@@H](CCCCN)C(=O)N[C@@H](CC(C)C)C(=O)N[C@@H](CC(C)C)C(=O)N[C@@H](CCC(=O)O)C(=O)N[C@@H](CC(C)C)C(=O)N[C@@H](CC(C)C)C(=O)N[C@@H](CC(C)C)C(=O)N[C@@H](CCC(=O)O)C(=O)N[C@@H](C)C(=O)N[C@@H](C)C(=O)NCC(=O)N[C@@H](Cc1c[nH]c2ccccc12)C(N)=O` ?
**A:** 4.95

**Q:** pIC50 for `CC(C)C[C@H](NC(=O)CN)C(=O)N[C@@H](CC(C)C)C(=O)N[C@@H](CCC(=O)O)C(=O)N[C@@H](CC(C)C)C(=O)N[C@@H](CC(C)C)C(=O)N[C@@H](CCC(=O)O)C(=O)N[C@@H](CC(C)C)C(=O)N[C@@H](CC(C)C)C(=O)N[C@@H](CC(C)C)C(=O)N[C@@H](Cc1c[nH]cn1)C(=O)N[C@@H](C)C(=O)N[C@@H](C)C(=O)NCC(=O)N[C@@H](Cc1c[nH]c2ccccc12)C(N)=O` ?
**A:** 4.89

# credit: patent US20230372433A1
